B1: library; a variant is named by its letters at N, in order (parent)
chain: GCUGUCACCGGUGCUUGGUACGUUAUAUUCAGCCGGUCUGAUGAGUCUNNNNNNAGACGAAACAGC

- Variants of: B1
- procedure-details: normalized RNA/DNA level with ligand (relative to sTRSVctl = 100) (log10 (% of sTRSVctl)); HEK293T overexpressing SLC46A1; ligand concentration (+) RNA-Seq: 6 mM; higher = less ribozyme self-cleavage, higher mRNA level
- applied-conditions: with (6R,S)-folinic acid; ligand present: yes
Catalogue of variants with associated normalized RNA/DNA level with ligand (log10)
attribute-measured: normalized RNA/DNA level with ligand (log10)

{"columns": ["variant-descriptor", "experimental-result"],
 "data": [
  ["AAAAUC", 2.01],
  ["AGGUGG", 2.05],
  ["GUAACC", 2.05],
  ["AUCGCA", 2],
  ["CCUUGU", 2],
  ["CCGUAA", 1.98],
  ["GGACCC", 2.03],
  ["GACUAC", 2.07],
  ["UAAAAA", 1.98],
  ["AUCUAC", 2.03],
  ["CAAUAG", 2.01],
  ["GGCGGA", 2.02],
  ["UGCCGG", 2.01],
  ["CGGCUA", 2.07],
  ["AGGCUG", 2.04],
  ["GAGAAG", 2.02],
  ["CCUGGC", 2.05],
  ["UAGUUC", 2.03],
  ["GCAACG", 2.01],
  ["GUACUA", 2.04],
  ["GACUGU", 1.98],
  ["UUGCCC", 2.03]
]}
